These measurements were taken from PubChem BioAssay (NCI).

Test system: DU-145 prostate
Test: NCI tumour cell line growth inhibition, 48 h
Recorded TGI values for a group of compounds are listed next.

Examples with their reported TGI follow.
{"compound": "O=S(=O)(NC1=NCCN1C(=S)SN1CCn2c1nsc2=S)c1ccc(Oc2ccccc2)cc1", "TGI": "> 100 µM"}
{"compound": "CCOc1cc(-c2nncn2C)ccc1Nc1ncc2cc(C)nc(NCC(C)(C)C)c2n1", "TGI": "> 100 µM"}
{"compound": "CC1=NN(c2ccc(S(=O)(=O)O)cc2)C2(C1)C(Cl)C(=O)N2c1nc2ccccc2s1 (centres undefined)", "TGI": "> 100 µM"}
{"compound": "COC(=O)C1C(C(=O)O)C2(c3ccccc3)C(=O)C1(c1ccccc1)C(c1ccccc1)=C2c1ccccc1 (centres undefined)", "TGI": "34 µM"}
{"compound": "CC(=O)OCC1(C)C(O)CCC2(C)C1CCC1CC3CC12CCC3(O)CO (centres undefined)", "TGI": "> 100 µM"}

Prompt: Could you tell me which TGI is on file for "COc1cccc2c1C(=O)c1c(O)c3c(c(O)c1C2=O)C[C@@](O)(/C(CO)=N/NC(=O)CCCCCN1C(=O)C=CC1=O)C[C@@H]3O[C@H]1C[C@H](N)[C@H](O)[C@H](C)O1" ?
Response: 38.6 µM

Prompt: Could you tell me which TGI is on file for "Cc1ccc(/C=N/NC(=O)c2ccccc2Oc2ccccc2)o1" ?
Response: > 100 µM

Prompt: Could you tell me which TGI is on file for CC(O)CNC(=O)Nc1c(C(F)(F)F)cc(-c2ccccc2)[nH]c1=O (centres undefined) ?
Response: > 100 µM

Prompt: Could you tell me which TGI is on file for "O=Cc1ccc2ccocc1-2" ?
Response: > 100 µM

###

Test system: DU-145 prostate
Experiment: NCI tumour cell line growth inhibition, 48 h
property-measured: GI50

Examples with their reported GI50 follow.
{"chemical-smiles": "COC(=O)[C@H](Cc1cn(C)cn1)NC(=O)[C@H](CC(=O)OCc1ccccc1)NC(=O)Nc1cc(C(F)(F)F)cc(C(F)(F)F)c1", "system-under-test": "DU-145 prostate", "GI50": "6.18 µM"}
{"chemical-smiles": "NC(=O)c1c(NC(=O)c2cccs2)sc2c1CCC(=O)C2", "system-under-test": "DU-145 prostate", "GI50": "4.13 µM"}
{"chemical-smiles": "COc1ccc2c(c1)C(=Nc1ccc(F)c(Cl)c1)c1c-2c(Nc2ccc(F)c(Cl)c2)nc2ccccc12", "system-under-test": "DU-145 prostate", "GI50": "> 100 µM"}
{"chemical-smiles": "CCCCC(=O)N(c1ccc(Nc2c3ccccc3nc3cc([N+](=O)[O-])ccc23)cc1)S(C)(=O)=O", "system-under-test": "DU-145 prostate", "GI50": "1.67 µM"}
{"chemical-smiles": "COC(=O)c1c[nH]c2cc(OC(C)C)c(OC(C)C)cc2c1=O", "system-under-test": "DU-145 prostate", "GI50": "> 100 µM"}
{"chemical-smiles": "CCc1nc(C)cn1C(=O)OCc1nc2nc(Cl)nc(N3CCOCC3)c2[nH]1", "system-under-test": "DU-145 prostate", "GI50": "1.22 µM"}
{"chemical-smiles": "O=C1/C(=C\\c2ccc(F)cc2)CN(C(=O)c2ccccc2F)C/C1=C\\c1ccc(F)cc1", "system-under-test": "DU-145 prostate", "GI50": "2.07 µM"}
{"chemical-smiles": "COc1cccc2c1C(=O)c1c(O)c3c(c(O)c1C2=O)C[C@@](O)(/C(CO)=N/NC(=O)CCCCCN1C(=O)C=CC1=O)C[C@@H]3O[C@H]1C[C@H](N)[C@H](O)[C@H](C)O1", "system-under-test": "DU-145 prostate", "GI50": "0.554 µM"}

Prompt: Could you tell me which GI50 is on file for "Oc1ccc2c(=S)cc(-c3ccc(Br)cc3)oc2c1O" ?
Response: 2.67 µM

Prompt: Could you tell me which GI50 is on file for "COc1cccc(Nc2ncnc3cc(NC(=O)CCl)ccc23)c1" ?
Response: 1.23 µM

Prompt: Could you tell me which GI50 is on file for "COc1cc(-c2nn(-c3ccc(NC(=O)Nc4cc(C(F)(F)F)cc(C(F)(F)F)c4)cc3)cc2-c2ccncc2)ccc1Cl" ?
Response: 3.39 µM

Prompt: Could you tell me which GI50 is on file for "CN(C)c1ccc(/C=C(\C#N)c2cc3ccccc3[nH]2)cc1" ?
Response: 3.41 µM

Prompt: Could you tell me which GI50 is on file for "COC(=O)[C@]12CC[C@@H](C)[C@H](C)[C@@H]1C1=CC[C@@H]3[C@@]4(C)C(C=O)=C[C@@](C)(CO)[C@@H]4[C@H](O)C[C@@]3(C)[C@]1(C)CC2" ?
Response: 4.77 µM

Prompt: Could you tell me which GI50 is on file for "CN1CCC2(CC1)N=C(SCC(=O)Nc1cnc3ccccc3c1)C(c1ccc(Br)cc1)=N2" ?
Response: 3.24 µM

Prompt: Could you tell me which GI50 is on file for "O=C(Nc1ccncc1)C(=O)c1cn(S(=O)(=O)c2cccc(Cl)c2)c2ccccc12" ?
Response: 10.9 µM

###

System: SF-268 CNS
Test: NCI tumour cell line growth inhibition, 48 h
property-measured: log10 of TGI (log10 of the value in µM)
Annotation: log10 of TGI, µM basis.

{"compound": "Cc1ccccc1NC(=O)Cc1nc2ccccc2s1", "readout-value": 1.52}
{"compound": "CC1(c2ccccc2)O[C@@H]2C[C@H]3[C@@H]4CCC5=CC(=O)C=C[C@]5(C)[C@@]4(F)[C@@H](O)C[C@]3(C)[C@]2(C(=O)CO)O1 (stereo not given in full)", "readout-value": 1.69}

Prompt: Could you tell me which log10 of TGI is on file for "Cc1c(C(=O)c2ccccc2)[n+](=O)c2cc(Cl)c(Cl)cc2n1[O-]" ?
Response: 1.47

Prompt: Could you tell me which log10 of TGI is on file for "C/C=C/c1cc2c(cc1O)CC[C@@H]1[C@@H]2CC[C@]2(C)[C@@H](O)CC[C@@H]12" ?
Response: 1.33

Prompt: Could you tell me which log10 of TGI is on file for "Nc1ccccc1C#C/C=C\C#Cc1ccccc1C#CCO" ?
Response: 1.39

Prompt: Could you tell me which log10 of TGI is on file for COC(=O)C1C(C(=O)O)C2(c3ccccc3)C(=O)C1(c1ccccc1)C(c1ccccc1)=C2c1ccccc1 (stereo not given) ?
Response: 1.73

Prompt: Could you tell me which log10 of TGI is on file for "O=C(/C=C/c1ccccc1)c1cccc2ccccc12" ?
Response: 0.71

Prompt: Could you tell me which log10 of TGI is on file for "N#Cc1c2ccccc2c(Cc2ccc3c(c2)OCCOCCOCCOCCOCCO3)c2ccccc12" ?
Response: 1.32

###

System: NCI-H460 lung
Assay: NCI tumour cell line growth inhibition, 48 h
Recorded TGI values for a group of compounds are listed next.
Report as a plain number; the unit µM is understood.

{"compound": "COC(=O)C1C(C(=O)O)C2(c3ccccc3)C(=O)C1(c1ccccc1)C(c1ccccc1)=C2c1ccccc1 (stereo not given)", "readout-value": 29.1}

Proceed to the following item.
Prompt: Could you tell me which TGI is on file for "C=C1C(=O)O[C@H]2[C@H]1CC/C(COC(=O)c1cccnc1N)=C\CC[C@@]1(C)O[C@@H]21" ?
Response: 10.8

###

Tested on: OVCAR-8 ovarian
Assay: NCI tumour cell line growth inhibition, 48 h; in the data active means GI50 below about 0.43 µM; inactive means the rest
The reply should name one outcome from 1 = active, 0 = inactive

{"compound": "NC(=O)c1c(NC(=O)c2cccs2)sc2c1CCC(=O)C2", "system-under-test": "OVCAR-8 ovarian", "label-value": 0}
{"compound": "O=C1C=C(NCCO)c2nccc3c2c1nc1ccccc13", "system-under-test": "OVCAR-8 ovarian", "label-value": 0}
{"compound": "CC(=O)[CH-]C(=O)c1ccccc1.CC(=O)[CH-]C(=O)c1ccccc1.Cl.[O-]c1ccnc2ccccc12.[O-]c1ccnc2ccccc12.[Ti+4]", "system-under-test": "OVCAR-8 ovarian", "label-value": 0}

Prompt: Recorded test call requested for "CC[C@@H](C)/C=C(C)/C=C/C(=O)c1c(O)c(-c2ccc(OC(=O)[C@@]34CC[C@@](C)(C(=O)O3)C4(C)C)cc2)cn(O)c1=O"
Response: 0

Prompt: Recorded test call requested for "CCN1CCN(c2nc(C)cc(NCc3cc(Nc4ccnc5cc(Cl)ccc45)ccc3F)n2)CC1"
Response: 0

Prompt: Recorded test call requested for "Nc1[nH]nc2nc(-c3cc(Cl)ccc3Cl)cc(-c3ccc(F)cc3)c12"
Response: 0

Prompt: Recorded test call requested for "Cc1sc(C(=O)c2cncnc2N[C@@H]2C[C@H](COS(N)(=O)=O)[C@@H](O)C2)cc1[C@@H]1NCCc2ccc(Cl)cc21"
Response: 0

Prompt: Recorded test call requested for Cc1nc2sc(C(=O)Nc3cccc(Br)c3C)c(N)c2cc1C(O)c1ccccc1 (centres undefined)
Response: 1

Prompt: Recorded test call requested for "CN1CCN(CCCNC(=O)c2c3c(n4ccccc24)C(=O)c2ncccc2C3=O)CC1"
Response: 0
